Target: T1, Hu CCK-B receptor protein (human, UniProt P32239 1-447, limits assumed)
T1 construct: also called human CCK-B receptor
T1 sequence (looked up): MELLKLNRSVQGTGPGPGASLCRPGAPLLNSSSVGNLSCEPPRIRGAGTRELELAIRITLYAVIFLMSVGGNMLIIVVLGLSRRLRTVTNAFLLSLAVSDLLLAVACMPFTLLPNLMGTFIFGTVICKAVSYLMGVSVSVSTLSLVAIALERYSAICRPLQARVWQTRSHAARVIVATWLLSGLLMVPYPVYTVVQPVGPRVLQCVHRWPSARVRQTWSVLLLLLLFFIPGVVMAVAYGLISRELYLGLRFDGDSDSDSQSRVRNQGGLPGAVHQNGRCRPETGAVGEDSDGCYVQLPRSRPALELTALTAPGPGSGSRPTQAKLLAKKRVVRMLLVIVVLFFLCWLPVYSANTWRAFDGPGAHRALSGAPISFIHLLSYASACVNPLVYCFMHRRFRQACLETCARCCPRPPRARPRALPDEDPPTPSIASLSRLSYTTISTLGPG
Test: indirect ELISA on human CCK-B receptor protein, concentration not shown

- Binder: "humanized P2X4R scFv HC2-LC1 (scFv, HC-(G4S)3-LC with C-terminal His tag, expressed in E. coli) scFv: MAQVQLQESGPGLVKPSQTLSLTCTTSGFTFTDYYMSWVRQAPGKGLEWIGFIRNKANGYTTEYSASVKGRFTISRDNSKNQFSLRLSSVTAADTAVYYCARWEGDLLYAMDYWGQGTTVTVSSGGGGSGGGGSGGGGSDIQMTQTTSSLSASLGDRVTISCSASQGISNYLNWYQQKPDGTVKLLIYYTSSLHSGVPSRFSGSGSGTDYSLTISNLEQEDIATYYCQQYSKLPWTFGGGTKLEIKRAAALEHHHHHH"
  binding result: "no binding"
- Binder: "humanized P2X4R scFv HC1-LC1 (scFv, HC-(G4S)3-LC with C-terminal His tag, expressed in E. coli) scFv: MAEVKLVESGGGLVQPGGSLRLSCATSGFTFTDYYMSWVRQPPGKALEWLGFIRNKANGYTTEYSASVKGRFTISRDNSQSILYLQMNTLRAEDSATYYCARWEGDLLYAMDYWGQGTSVTVSSGGGGSGGGGSGGGGSDIQMTQTTSSLSASLGDRVTISCSASQGISNYLNWYQQKPDGTVKLLIYYTSSLHSGVPSRFSGSGSGTDYSLTISNLEQEDIATYYCQQYSKLPWTFGGGTKLEIKRAAALEHHHHHH"
  binding result: "no binding"

Data origin, for the record: patent US20250059273A1
